- Test Name: Microsomal stability assay, rat liver microsomes (RLM)
- Assay type: in vitro ADME
- Condition Summary: rat liver microsomes 0.5 mg/mL, 1 uM substrate, 2 mM NADPH, 37° C., referenced against time zero control
Measured Parameter: RLM (% remaining @ 30 minutes) (%)

[[record]]
molecule = "O=C(Nc1cc[nH]c(=O)c1)c1cc(OC(F)(F)F)ccc1Oc1ccc(F)cc1Cl [Compound 37]"
experimental_value = 97

[[record]]
molecule = "Cc1cc(F)ccc1Oc1ccc(C(F)(F)F)cc1C(=O)Nc1cc[nH]c(=O)c1 [Compound 31]"
experimental_value = 91

[[record]]
molecule = "COc1cc(F)ccc1Oc1cc(C(F)(F)C(F)(F)F)ccc1C(=O)Nc1cc[nH]c(=O)c1 [Compound 111]"
experimental_value = 90

[[record]]
molecule = "COc1cc(F)ccc1Oc1ccc(C(F)(F)F)cc1C(=O)Nc1cc[nH]c(=O)c1 [Compound 30]"
experimental_value = 78

[[record]]
molecule = "O=C(Nc1cc[nH]c(=O)c1)c1cc(C(F)(F)F)ccc1Oc1ccc(F)c(F)c1F [Compound 90]"
experimental_value = 104

[[record]]
molecule = "COc1ccc(Oc2cc(Cl)c(Cl)cc2C(=O)Nc2cc[nH]c(=O)c2)cc1F [Compound 115]"
experimental_value = 95

[[record]]
molecule = "O=C(Nc1cc[nH]c(=O)c1)c1cc(OC(F)(F)F)ccc1Oc1ccc(F)cc1F [Compound 33]"
experimental_value = 110

[[record]]
molecule = "O=C(Nc1cc[nH]c(=O)c1)c1ccc(C(F)(F)F)cc1Oc1ccc(F)cc1F [Compound 7]"
experimental_value = 99


---

- System Under Test: human Nav1.8 (Homo sapiens (Human), UniProt Q9Y5Y9)
- Sequence (Q9Y5Y9 whole entry): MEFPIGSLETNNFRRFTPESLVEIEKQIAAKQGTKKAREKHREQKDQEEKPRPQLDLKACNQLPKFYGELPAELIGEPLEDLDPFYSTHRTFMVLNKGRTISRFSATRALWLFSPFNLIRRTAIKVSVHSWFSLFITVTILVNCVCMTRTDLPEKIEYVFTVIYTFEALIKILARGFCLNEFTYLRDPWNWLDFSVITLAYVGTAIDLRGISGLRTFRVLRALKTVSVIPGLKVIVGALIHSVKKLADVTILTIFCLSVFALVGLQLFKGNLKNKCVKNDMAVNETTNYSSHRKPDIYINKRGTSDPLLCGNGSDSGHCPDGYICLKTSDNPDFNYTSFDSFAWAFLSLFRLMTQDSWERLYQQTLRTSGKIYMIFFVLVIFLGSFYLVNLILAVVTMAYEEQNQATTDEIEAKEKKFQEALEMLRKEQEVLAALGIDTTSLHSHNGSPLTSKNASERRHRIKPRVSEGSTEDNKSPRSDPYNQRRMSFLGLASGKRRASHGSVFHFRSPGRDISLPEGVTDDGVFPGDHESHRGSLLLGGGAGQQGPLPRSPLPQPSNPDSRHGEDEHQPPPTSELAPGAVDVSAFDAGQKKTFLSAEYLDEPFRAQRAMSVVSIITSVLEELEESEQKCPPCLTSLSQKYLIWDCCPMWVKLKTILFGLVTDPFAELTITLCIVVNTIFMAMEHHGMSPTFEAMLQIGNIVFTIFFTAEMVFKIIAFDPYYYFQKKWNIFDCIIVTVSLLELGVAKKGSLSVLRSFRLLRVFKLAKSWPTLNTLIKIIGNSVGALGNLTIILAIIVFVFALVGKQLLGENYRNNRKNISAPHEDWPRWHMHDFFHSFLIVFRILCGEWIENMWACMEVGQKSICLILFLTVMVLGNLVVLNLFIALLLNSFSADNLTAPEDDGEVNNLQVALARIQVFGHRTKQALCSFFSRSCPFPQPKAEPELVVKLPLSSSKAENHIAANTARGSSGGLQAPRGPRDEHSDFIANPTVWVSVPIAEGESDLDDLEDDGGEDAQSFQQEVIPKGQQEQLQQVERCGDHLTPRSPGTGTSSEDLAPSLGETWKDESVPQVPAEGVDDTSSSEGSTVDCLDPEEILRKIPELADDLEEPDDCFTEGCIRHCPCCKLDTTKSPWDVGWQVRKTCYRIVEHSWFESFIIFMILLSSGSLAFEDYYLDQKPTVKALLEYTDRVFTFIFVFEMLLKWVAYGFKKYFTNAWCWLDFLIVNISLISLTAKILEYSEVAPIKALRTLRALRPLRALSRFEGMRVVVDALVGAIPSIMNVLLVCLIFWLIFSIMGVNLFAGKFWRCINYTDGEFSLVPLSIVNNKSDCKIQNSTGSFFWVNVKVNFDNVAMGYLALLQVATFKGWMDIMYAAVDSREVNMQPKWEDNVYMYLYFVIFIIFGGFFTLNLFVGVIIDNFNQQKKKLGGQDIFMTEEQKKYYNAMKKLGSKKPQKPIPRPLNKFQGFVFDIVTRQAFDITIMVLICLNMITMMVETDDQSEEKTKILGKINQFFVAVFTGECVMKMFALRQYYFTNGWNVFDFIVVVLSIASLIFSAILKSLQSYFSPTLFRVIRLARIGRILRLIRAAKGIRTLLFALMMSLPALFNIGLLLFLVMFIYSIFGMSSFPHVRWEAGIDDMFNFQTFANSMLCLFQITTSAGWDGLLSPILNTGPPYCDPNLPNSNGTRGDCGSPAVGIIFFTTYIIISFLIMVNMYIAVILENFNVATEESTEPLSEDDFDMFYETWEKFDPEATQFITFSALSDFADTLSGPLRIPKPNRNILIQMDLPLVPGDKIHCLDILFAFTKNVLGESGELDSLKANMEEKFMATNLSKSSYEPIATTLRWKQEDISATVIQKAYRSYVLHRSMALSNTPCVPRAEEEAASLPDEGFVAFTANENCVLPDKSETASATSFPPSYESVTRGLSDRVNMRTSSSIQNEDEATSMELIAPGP
- Test Name: E-VIPR optical membrane potential assay with electrical stimulation
- Condition Summary: HEK cells expressing human Nav1.8
Measured Parameter: IC50 (nM)

The examples below pair each entry with its known result.
[[record]]
compound = "CCOc1ccccc1Oc1ccc(C(F)(F)F)cc1C(=O)Nc1cc[nH]c(=O)c1"
system_under_test = "human Nav1.8 (Homo sapiens (Human), UniProt Q9Y5Y9)"
experimental_value = 64

[[record]]
compound = "Cc1cc(F)ccc1Oc1cc(Cl)ccc1C(=O)Nc1cc[nH]c(=O)c1"
system_under_test = "human Nav1.8 (Homo sapiens (Human), UniProt Q9Y5Y9)"
experimental_value = 30

[[record]]
compound = "Cc1ccc(Oc2ccc(C(F)(F)F)cc2C(=O)Nc2cc[nH]c(=O)c2)c(F)c1F"
system_under_test = "human Nav1.8 (Homo sapiens (Human), UniProt Q9Y5Y9)"
experimental_value = 135

[[record]]
compound = "O=C(Nc1cc[nH]c(=O)c1)c1cc(C(F)(F)F)ccc1OCC1CCCC1"
system_under_test = "human Nav1.8 (Homo sapiens (Human), UniProt Q9Y5Y9)"
experimental_value = 5100

[[record]]
compound = "COc1cc(F)ccc1Oc1ccc(OC(F)(F)F)cc1C(=O)Nc1cc[nH]c(=O)c1"
system_under_test = "human Nav1.8 (Homo sapiens (Human), UniProt Q9Y5Y9)"
experimental_value = 68

[[record]]
compound = "O=C(Nc1ccc(=O)[nH]c1)c1ccccc1Oc1ccc(F)cc1"
system_under_test = "human Nav1.8 (Homo sapiens (Human), UniProt Q9Y5Y9)"
experimental_value = 13500

[[record]]
compound = "O=C(Nc1cc[nH]c(=O)c1)c1cc(OC(F)(F)F)ccc1OCC1CCCC1"
system_under_test = "human Nav1.8 (Homo sapiens (Human), UniProt Q9Y5Y9)"
experimental_value = 2600

[[record]]
compound = "O=C(Nc1ccc(=O)[nH]c1)c1ccc(C(F)(F)F)cc1Oc1ccc(F)cc1"
system_under_test = "human Nav1.8 (Homo sapiens (Human), UniProt Q9Y5Y9)"
experimental_value = 245

[[record]]
compound = "O=C(Nc1cc[nH]c(=O)c1)c1ccc(Cl)cc1OCCCC(F)(F)F"
system_under_test = "human Nav1.8 (Homo sapiens (Human), UniProt Q9Y5Y9)"
experimental_value = 940

[[record]]
compound = "O=C(Nc1cc[nH]c(=O)c1)c1cc(C(F)(F)F)ccc1OCCC(F)(F)F"
system_under_test = "human Nav1.8 (Homo sapiens (Human), UniProt Q9Y5Y9)"
experimental_value = 330


[a] COc1cccc(F)c1Oc1ccc(C(F)(F)F)cc1C(=O)Nc1cc[nH]c(=O)c1
[b] COc1ccc(Oc2cc(C(F)(F)C(F)(F)F)ccc2C(=O)Nc2cc[nH]c(=O)c2)cc1F
[c] O=C(Nc1cc[nH]c(=O)c1)c1cc(C(F)(F)F)ccc1Oc1ccc(F)cc1Cl
[d] COc1ccc(Oc2cc(Cl)c(Cl)cc2C(=O)Nc2cc[nH]c(=O)c2)cc1F
Your job: order these 4 records by IC50, ascending. // rank by listing labels in the order requested d, b, c, a
(d: 7 nM, b: 16 nM, c: 28 nM, a: 2700 nM)

[a] CCOc1ccc(Oc2ccc(C(F)(F)F)cc2C(=O)Nc2cc[nH]c(=O)c2)cc1
[b] Cc1cc(F)ccc1Oc1cc(C#N)ccc1C(=O)Nc1cc[nH]c(=O)c1
[c] CCCOc1ccc(Oc2ccc(C(F)(F)F)cc2C(=O)Nc2cc[nH]c(=O)c2)cc1
Order the records so the highest IC50 appears first and the lowest last. // rank by listing labels in the order requested b, c, a

[1] COCCOc1ccc(Oc2cc(C(F)(F)F)ccc2C(=O)Nc2cc[nH]c(=O)c2)cc1
[2] O=C(Nc1cc[nH]c(=O)c1)c1ccc(C(F)(F)F)cc1Oc1ccc(F)cc1
Given the two records 1 and 2 , choose the one whose IC50 value is lower. Respond with the label that goes with your answer. 2

[a] O=C(Nc1cc[nH]c(=O)c1)c1cc(F)c(Cl)cc1Oc1ccc(F)cc1Cl
[b] O=C(Nc1cc[nH]c(=O)c1)c1ccc(Cl)cc1Oc1c(F)cccc1Cl
[c] O=C(Nc1cc[nH]c(=O)c1)c1cc(OC(F)(F)F)ccc1Oc1ccc(F)cc1F
[d] Cc1ccccc1Oc1ccc(C(F)(F)F)cc1C(=O)Nc1cc[nH]c(=O)c1
Your job: order these 4 records by IC50, ascending. // rank by listing labels in the order requested a, d, c, b

[1] CC(C)COc1cc(C(F)(F)F)ccc1C(=O)Nc1cc[nH]c(=O)c1
[2] O=C(Nc1cc[nH]c(=O)c1)c1cc(C(F)(F)F)ccc1Oc1c(F)cccc1F
Compare 1 and 2 by numeric IC50 and name the larger one. Respond with the label that goes with your answer. 2

[I] Cc1cc(C)c(Oc2ccc(C(F)(F)F)cc2C(=O)Nc2cc[nH]c(=O)c2)cc1C
[II] Cc1ccc(F)cc1Oc1ccc(C(F)(F)F)cc1C(=O)Nc1cc[nH]c(=O)c1
[III] CC(C)CCOc1cc(C(F)(F)F)ccc1C(=O)Nc1cc[nH]c(=O)c1
[IV] O=C(Nc1cc[nH]c(=O)c1)c1cc(OC(F)(F)F)ccc1Oc1c(F)cccc1F
[V] O=C(Nc1ccc(=O)[nH]c1)c1ccc(C(F)(F)F)cc1Oc1ccc(C(F)(F)F)nc1
Your job: order these 5 records by IC50, ascending. // rank by listing labels in the order requested II, III, I, V, IV

[I] Cc1ncccc1Oc1ccc(OC(F)(F)F)cc1C(=O)Nc1cc[nH]c(=O)c1
[II] O=C(Nc1cc[nH]c(=O)c1)c1cc(F)ccc1Oc1ccc(C2CC2)cc1
Compare I and II by numeric IC50 and name the larger one. Respond with the label that goes with your answer. I

[I] O=C(Nc1cc[nH]c(=O)c1)c1ccc(Cl)cc1Oc1ccc(F)cc1Cl
[II] O=C(Nc1cc[nH]c(=O)c1)c1ccc(C(F)(F)F)cc1OC1C[C@@H]2C[C@@H]2C1 (stereo partly shown)
Compare I and II by numeric IC50 and name the larger one. Respond with the label that goes with your answer. II
(II: 17500 nM, I: 65 nM)

Entry source: patent US9051270B2
